Source of measurements: PubChem BioAssay

Experiment: modulators of S6 phosphorylation in cells, primary screen, cell-based, A549, cytoblot, luminescence, serum-stimulated (AID 1158);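 also: serum-stimulated A549 lung adenocarcinoma cells; signal is phosphorylated S6 detected by cytoblot immunostaining with HRP secondary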
Details: A549 phospho-S6 cytoblot, 5 h, higher = more signal
Given measured z-score, output 1 if it is greater than or equal to 0.1 and 0 if not.

- molecule: "COCCOC(=O)N1C(=O)[C@@]2(c3cc(C#CC4=CCCCC4)ccc31)[C@H](C(=O)Nc1nc3ccccc3s1)[C@H]1C(=O)O[C@H](c3ccccc3)[C@H](c3ccccc3)N1[C@@H]2c1ccc(OCCO)cc1"
  answer label: 0
- molecule: "COCCOC(=O)N1C(=O)[C@@]2(c3cc(C#Cc4ccc(OC)cc4)ccc31)[C@H](c1ccc(O)cc1)N1[C@H](c3ccccc3)[C@H](c3ccccc3)OC(=O)[C@H]1[C@@H]2C(=O)NC[C@H](O)c1ccccc1"
  answer label: 1
- molecule: "C[N+](C)(C)CCCCNC(=O)[C@H]1C[C@H]2C(=O)N[C@@H](Cc3ccccc3)C(=O)N2[C@H]1c1ccc(O)cc1"
  answer label: 1

Query string: Quick check, z-score >= 0.1? COC(=O)[C@@]1(Cc2ccc(OC)cc2)[C@H]2c3cc(C(=O)N4CCCC4)n(Cc4ccc(OC)c(OC)c4)c3C[C@H]2CN1C(=O)c1ccccc1
Result string: 0

Query string: Quick check, z-score >= 0.1? CN1C(=O)C2C=CC(C(O)c3ccc(I)cc3)N(N3CCCCC3)C2C1=O (stereo unspecified)
Result string: 0

Query string: Quick check, z-score >= 0.1? COCCOC(=O)N1C(=O)[C@@]2(c3cc(C#CCNC(N)=O)ccc31)[C@H](C(=O)NC[C@H](O)c1ccccc1)[C@H]1C(=O)O[C@H](c3ccccc3)[C@H](c3ccccc3)N1[C@@H]2c1ccccc1OCCO
Result string: 1

* * *

System: PRMT1 (protein arginine N-methyltransferase 1)
Assay: PRMT1 binders on small-molecule microarrays, primary screen, biochemical, small-molecule microarray, 635 nm fluorescence (AID 1088);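 also: binding of Prmt1 protein to compounds spotted on small-molecule microarray slides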
Settings: small-molecule microarray binding, higher = more signal
Form field: composite z-score (one value per entry).
Answer field: number only, no words.

Before answering, review these 3 worked examples.
- compound: "CC(C)(C)OC(=O)CC[C@]1(C(=O)O)N=C(c2ccc(OCCCO)cc2)O[C@H]1c1ccccc1N=[N+]=[N-]"
  composite z-score: 0.938
- compound: "CCCCC=C[C@@H](NC(=O)Oc1cccc(C(F)(F)F)c1)c1ccccc1"
  composite z-score: 0.745
- compound: "COc1cc(CO)cc(I)c1O[C@H]1C=C(C(=O)NCCO)C[C@@H](N(CCN2CCOCC2)C(=O)C2CCOC2)[C@@H]1O (stereo partly drawn)"
  composite z-score: 0.815

Query string: Give composite z-score for the following compound: CCCC=C(CCC)[C@@H](NC(=O)Oc1ccc(F)cc1)c1ccc(C(=O)OC)cc1
Result string: 0.598

Query string: Give composite z-score for the following compound: COC(=O)[C@@]1(Cc2ccccc2)[C@H]2c3cc(C(=O)N(C)C)n(CCSCCO)c3C[C@H]2CN1C(=O)c1ccccc1
Result string: -0.0249

Query string: Give composite z-score for the following compound: COc1ccc([Si](C)(C)[C@H]2[C@H](CC(=O)N3CCC[C@H]3CO)O[C@@]3(C(=O)N(Cc4cccc(N5C(=O)c6cccc7cccc5c67)c4)c4ccccc43)[C@@H]2C)cc1
Result string: 1.56

Query string: Give composite z-score for the following compound: CC(C)C[C@@H]1NC(=O)[C@H]2C[C@@H](C(=O)NCCCCCCN(C)C)[C@@H](c3ccc(O)cc3)N2C1=O
Result string: 1.56

Query string: Give composite z-score for the following compound: COCCOC(=O)N1C(=O)[C@@]2(c3cc(C#Cc4ccc(OC)cc4)ccc31)[C@H](C(N)=O)[C@H]1C(=O)O[C@H](c3ccccc3)[C@H](c3ccccc3)N1[C@@H]2c1ccccc1OCCO
Result string: 1.54
